# Lookup of reported fraction unbound at 5 h keyed by entry
# assay-notes: in vitro
# experimental-context: human, plasma, PPB
Respond numerically, and do not add a unit to the figure.

CC(C)(C)NC(=O)NCCN1CCC(CNC(=O)c2cc(Cl)cc(Cl)c2)C1 (configuration not stated) : 0.0968

Query block: Need fraction unbound at 5 h, item CC(C)(C)NC(=O)CN1CCN(CC(=O)NC23CC4CC(CC(C4)C2)C3)CC1
Result block: 0.299

Query block: Which fraction unbound at 5 h value is on record for Cc1ccc(NC(=O)c2ccc(C#N)cc2)cc1-n1cnc2ccc(N3CCN(C)CC3)cc2c1=O ?
Result block: 0.319

Query block: Need fraction unbound at 5 h of CC(C)(C)OC(=O)N[C@H](Cc1ccccc1C(F)(F)F)C(=O)NCc1nc2cccnc2n1Cc1ccccc1 , thanks.
Result block: 0.0111

Query block: What does the record list as fraction unbound at 5 h for CCOc1cc2nnc(C(N)=O)c(Nc3ccc(F)cc3F)c2cc1N1CCN(C)CC1 ?
Result block: 0.0383

Query block: Data request, read-out fraction unbound at 5 h, for Cc1ncc(NC(=O)c2cc(NC(=O)c3cccc(C(F)(F)F)c3)ccc2C)s1
Result block: 0.0119
